The following compounds have recorded pKi on D(3) dopamine receptor (Rattus norvegicus).
Sequence (P19020 whole entry): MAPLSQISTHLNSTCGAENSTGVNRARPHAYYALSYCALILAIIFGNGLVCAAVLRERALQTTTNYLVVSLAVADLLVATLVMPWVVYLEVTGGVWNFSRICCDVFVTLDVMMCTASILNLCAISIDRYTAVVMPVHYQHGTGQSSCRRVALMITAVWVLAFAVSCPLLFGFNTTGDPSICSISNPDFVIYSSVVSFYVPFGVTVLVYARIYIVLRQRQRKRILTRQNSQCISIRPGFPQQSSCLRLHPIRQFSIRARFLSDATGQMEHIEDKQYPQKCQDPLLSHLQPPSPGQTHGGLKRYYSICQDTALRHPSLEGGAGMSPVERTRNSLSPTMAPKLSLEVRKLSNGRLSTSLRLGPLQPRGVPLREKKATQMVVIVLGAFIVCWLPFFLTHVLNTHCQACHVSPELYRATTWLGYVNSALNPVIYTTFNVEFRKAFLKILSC
pKi: −log10 of the molar value.
measurement.kind: pKi

structure_as_smiles=COc1cc(NC(=O)C2CCCC2)c(Cl)cc1C(=O)N[C@@H]1CCN(Cc2ccccc2)C1 recorded_measurement=6.82
structure_as_smiles=COc1cc(NC(=O)C(C)C)c(Cl)cc1C(=O)N[C@H]1CCN(Cc2ccccc2)C1 recorded_measurement=7.82
structure_as_smiles=COc1cc(NC(=O)C2CC2)c(Cl)cc1C(=O)N[C@H]1CCN(C2CCCCC2)C1 recorded_measurement=8.36
